assayed.target: T1, ActRIIa receptor-Fc fusion (UniProt P27037 20-134, limits assumed)
T1 construct: BMP receptor-Fc fusion used at 5 ug/mL
T1 sequence (P27037 20-134 limits assumed): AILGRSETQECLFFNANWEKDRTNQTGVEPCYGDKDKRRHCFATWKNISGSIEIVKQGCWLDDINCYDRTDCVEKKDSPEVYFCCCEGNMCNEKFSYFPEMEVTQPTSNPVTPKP
assay.summary: ELISA-like plate assay, captured BMP-7 from conditioned media, receptor-Fc detection
Please provide measured ActRIIa binding (relative to wild type = 1.0) for the entries that follow.

Completed entries (count: 3):
{"columns": ["binder", "result"],
 "data": [
  ["BMP-7 variant R129K (ligand, In conditioned media; numbering on mature BMP-7) STGGKQRSQNRSKTPKNQEALRMASVAENSSSDQRQACKKHELYVSFRDLGWQDWIIAPEGYAAYYCEGECAFPLNSYMNATNHAIVQTLVHFINPETVPKPCCAPTQLNAISVLYFDDSSNVILKKYKNMVVRACGCH", "1.12 relative to wild type"],
  ["BMP-7 variant F93H (ligand, In conditioned media; numbering on mature BMP-7) STGGKQRSQNRSKTPKNQEALRMASVAENSSSDQRQACKKHELYVSFRDLGWQDWIIAPEGYAAYYCEGECAFPLNSYMNATNHAIVQTLVHHINPETVPKPCCAPTQLNAISVLYFDDSSNVILKKYRNMVVRACGCH", "0.98 relative to wild type"],
  ["BMP-7 variant L90T (ligand, In conditioned media; numbering on mature BMP-7) STGGKQRSQNRSKTPKNQEALRMASVAENSSSDQRQACKKHELYVSFRDLGWQDWIIAPEGYAAYYCEGECAFPLNSYMNATNHAIVQTTVHFINPETVPKPCCAPTQLNAISVLYFDDSSNVILKKYRNMVVRACGCH", "0.66 relative to wild type"]
]}

As a next step, examine the binder that follows.
Asked: Using the record for BMP-7 variant S77H (ligand, In conditioned media; numbering on mature BMP-7) STGGKQRSQNRSKTPKNQEALRMASVAENSSSDQRQACKKHELYVSFRDLGWQDWIIAPEGYAAYYCEGECAFPLNHYMNATNHAIVQTLVHFINPETVPKPCCAPTQLNAISVLYFDDSSNVILKKYRNMVVRACGCH , report its ActRIIa binding (relative to wild type = 1.0).
Given back: 0.42 relative to wild type
